Examples of compounds with documented GI50 follow.
- Test system: UACC-257
- test name: NCI tumour cell line growth inhibition, 48 h
Active and inactive are the calls of the source. Cut-off read from the data, not from the text of the source: active = GI50 up to about 1.1 µM and inactive = higher.

Past entries and their recorded results:
{"compound": "[O-][S+]1Nc2c(Cl)cc(Cl)c3c(Cl)cc(Cl)c(c23)N1", "test value": "54.7 µM (inactive)"}
{"compound": "Cn1c(=O)c2c(nc(Nc3ccc(Cl)cc3)n3c(=O)n(-c4ccccc4)c(=O)n23)n(C)c1=O", "test value": "> 100 µM (inactive)"}

GI50 for COC(=O)/C=C(C)/C=C\COC1CCCCO1 (stereo not drawn) ? > 100 µM (inactive)

----------
- System: UACC-62
- test name: NCI tumour cell line growth inhibition, 48 h
The source made the active and inactive calls. Cut-off read from the data, not from the text of the source: active = GI50 up to about 1.1 µM and inactive = higher.
observable: GI50

{"molecule": "CC(C)c1cccc(C(C)C)c1NC(=S)NN=C1C=C(C(C)(C)C)C(=O)C(C(C)(C)C)=C1", "test value": "20.3 µM (inactive)"}
{"molecule": "CCNc1ncnc2nn[nH]c12", "test value": "> 100 µM (inactive)"}
{"molecule": "Nc1nc(Cl)cc(NCC2(CO)CCC(O)C2)n1 (configuration not stated)", "test value": "> 100 µM (inactive)"}
{"molecule": "Cc1cc(C)n(-c2nc(C)c(CCO)c(=O)[nH]2)n1", "test value": "> 100 µM (inactive)"}

GI50 for COc1ccc(/N=C2/C(=N/c3ccc(OC)cc3)N(c3ccccc3)C(=S)N2N=C=C2Sc3ccccc3N2C)cc1 ? > 100 µM (inactive)

GI50 for CCOC(=O)C1=C(Nc2cccc3ccccc23)OCC1=O ? > 100 µM (inactive)

GI50 for Nc1nc(-c2cccs2)cs1 ? 83.9 µM (inactive)

----------
- Test system: U-251
- test name: NCI tumour cell line growth inhibition, 48 h
Active and inactive are the calls of the source. No stated cut-off is given here; in the data, active = GI50 up to about 1.1 µM and inactive = higher.
observable: GI50

Past entries and their recorded results:
{"compound": "C[C@]12Cc3cn[nH]c3C(=O)C1CC[C@@H]1C2CC[C@@]2(C)C1CC[C@]2(C)O (some centres undefined)", "test value": "> 100 µM (inactive)"}
{"compound": "N#Cc1c(=O)c2cc([N+](=O)[O-])ccc2n2c1[nH]c1ccccc12", "test value": "7.71 µM (inactive)"}
{"compound": "O=C(CSc1nc(=O)c(-c2ccccc2NC(=O)C(F)(F)F)n[nH]1)NC(=O)Nc1ccccc1", "test value": "> 100 µM (inactive)"}
{"compound": "CCc1cccc(C(C)C)c1NC(=O)CC1Sc2ccccc2NC1=O (centres undefined)", "test value": "71 µM (inactive)"}
{"compound": "CN(C(=O)C12C3(C(=O)O)C4C5(C(=O)O)C3C1(C(=O)O)C5C42C(=O)O)C(C)(C)C (centres undefined)", "test value": "> 100 µM (inactive)"}

Now turn to the next compound.
GI50 for O[C@@H]1C[C@@H]2N[C@@](O)(C[C@@H]2O)[C@H]1O ? > 100 µM (inactive)

----------
- System: A549
- test name: NCI tumour cell line growth inhibition, 48 h
Calls of active or inactive are those of the source. No stated cut-off is given here; in the data, active = GI50 up to about 1.1 µM and inactive = higher.
Examples of compounds with documented GI50 follow.

{"compound": "O=CCCCCCOCc1ccccc1", "system": "A549", "GI50": "43.6 µM (inactive)"}
{"compound": "COc1ccc([N+](=O)[O-])c2c(NCCCN(C)C)c(C)c(C)nc12", "system": "A549", "GI50": "99.3 µM (inactive)"}
{"compound": "COc1cc(-c2oc(/C=N/c3ccccc3)c([N+](=O)[O-])c2-c2ccc(O)c(OC)c2)ccc1O", "system": "A549", "GI50": "39.2 µM (inactive)"}
{"compound": "CC(=O)OC[C@H]1O[C@@H](O[C@H]2[C@H](OC(C)=O)C=CO[C@@H]2COC(C)=O)C(OC(C)=O)[C@H]2OC(C)(C)O[C@H]21 (stereo partly specified)", "system": "A549", "GI50": "> 100 µM (inactive)"}
{"compound": "Sc1nnc(CCCCCCCCc2nnc(S)o2)o1", "system": "A549", "GI50": "> 100 µM (inactive)"}
{"compound": "N#Cc1c(=O)c2cc([N+](=O)[O-])ccc2n2c1[nH]c1ccccc12", "system": "A549", "GI50": "7.57 µM (inactive)"}

GI50 for C[C@]12Cc3cn[nH]c3C(=O)C1CC[C@@H]1C2CC[C@@]2(C)C1CC[C@]2(C)O (stereo partly specified) ? > 100 µM (inactive)

GI50 for C=CCNC(=O)N(CCCC(NC(C)=O)C(=O)NCc1ccccc1)Cc1ccccc1 (stereo unspecified) ? > 100 µM (inactive)

GI50 for COC(=O)/C=C(C)/C=C\COC1CCCCO1 (stereo unspecified) ? > 100 µM (inactive)

GI50 for O=C(Nc1sccc1S(=O)(=O)c1ccc(Cl)cc1)c1ccc(F)cc1F ? 48.2 µM (inactive)

GI50 for COP(=O)(OC)OCN(C)CC/C=C(\C)CC/C=C(\C)CCC=C(C)C ? 16.9 µM (inactive)

----------
- Tested on: SW-620
- test name: NCI tumour cell line growth inhibition, 48 h
Activity calls are given as the source filed them. Cut-off read from the data, not from the text of the source: active = GI50 up to about 1.1 µM and inactive = higher.
Examples of molecules with documented GI50 follow.

Past entries and their recorded results:
{"molecule": "CC(=O)OC[C@H]1O[C@@H](O[C@H]2[C@H](OC(C)=O)C=CO[C@@H]2COC(C)=O)C(OC(C)=O)[C@H]2OC(C)(C)O[C@H]21 (some centres undefined)", "test value": "64.3 µM (inactive)"}
{"molecule": "CC1CCP(=O)(c2ccccc2)c2ccccc21 (centres undefined)", "test value": "> 10 µM (inactive)"}
{"molecule": "CCCC(C)NC(=O)c1ccc(N(C)Cc2cnc3nc(N)nc(N)c3n2)cc1 (centres undefined)", "test value": "28.4 µM (inactive)"}

GI50 for COc1cc(Cn2c3c(c4cc(O)ccc42)Cc2ccccc2C3=O)cc(OC)c1 ? 54.5 µM (inactive)

----------
- System: CCRF-CEM
- test name: NCI tumour cell line growth inhibition, 48 h
Calls of active or inactive are those of the source. No stated cut-off is given here; in the data, active = GI50 up to about 1.1 µM and inactive = higher.
# output must be one of active, inactive

These solved cases illustrate the format of a correct answer.
{"compound": "COc1ccc2c3c1OC1C(=O)C=CC4(O)C(C2)NCC[C@@]314 (some centres undefined)", "system": "CCRF-CEM", "assigned label": "active"}
{"compound": "O=C1N/C(=N/N=C/c2ccccc2)N/C1=C\\c1c[nH]c2ccccc12", "system": "CCRF-CEM", "assigned label": "inactive"}
{"compound": "Nc1cccc2c1C(=O)c1cccc(N)c1C2=O", "system": "CCRF-CEM", "assigned label": "inactive"}
{"compound": "COc1cc(/C=C2\\CCC(C)C3C2=NN(C(C)=O)C3c2cc(OC)c(OC)c(OC)c2)cc(OC)c1OC (centres undefined)", "system": "CCRF-CEM", "assigned label": "inactive"}
{"compound": "CN/N=C(\\C)C(CN1CCCCC1)C(C1=C(O)c2ccccc2OC1)c1ccccc1 (centres undefined)", "system": "CCRF-CEM", "assigned label": "inactive"}
{"compound": "Brc1cccc(C2SCc3nc4ccccc4n32)c1 (centres undefined)", "system": "CCRF-CEM", "assigned label": "inactive"}
{"compound": "COC(=O)N1CCc2c(nc(N(C)CCO)[nH]c2=O)C1", "system": "CCRF-CEM", "assigned label": "inactive"}
{"compound": "CC(C)(C)C1CCC2(CC1)CCN(CCCN1CCOCC1)CC2", "system": "CCRF-CEM", "assigned label": "inactive"}
{"compound": "N#C/C(=C/N1C(=O)/C(=C/c2ccc([N+](=O)[O-])cc2)SC1=S)c1nc2ccccc2s1", "system": "CCRF-CEM", "assigned label": "inactive"}
{"compound": "CCOS(C)(=O)=O [METHANESULFONIC ACID ETHYL ESTER]", "system": "CCRF-CEM", "assigned label": "inactive"}

Below: the item to evaluate.
What was the test verdict on Cc1nc(-c2nc(C)c(C(=O)/C=C/c3ccc(N(C)C)cc3)s2)sc1C(=O)/C=C/c1ccc(N(C)C)cc1 ? inactive

----------
- Test system: HL-60
- test name: NCI tumour cell line growth inhibition, 48 h
The source made the active and inactive calls. Cut-off read from the data, not from the text of the source: active = GI50 up to about 1.1 µM and inactive = higher.
# output must be one of true = active, false = inactive

These solved cases illustrate the format of a correct answer.
{"compound": "CCCCn1c(C)c(C(=O)OCC)s/c1=N/Nc1nc2ccccc2nc1-c1ccccc1", "assigned label": "false"}
{"compound": "CC[C@@H](C(=O)[C@@H](C)[C@@H](O)[C@H](C)CCc1ccc(C)c(O)c1C(=O)O)[C@H]1O[C@](CC)([C@H]2CC[C@](O)(CC)[C@H](C)O2)C[C@@H]1C [LASALOCID A SODIUM]", "assigned label": "true"}
{"compound": "COc1cccc2c1C(=O)c1c(O)c3c(c(O)c1C2=O)CC(O)(C(O)CO)CC3OC1CC2C(OC3COCC(C#N)N32)C(C)O1 (centres undefined)", "assigned label": "true"}

What was the test verdict on CC1CCP(=O)(c2ccccc2)c2ccccc21 (centres undefined) ? false
